Measured half-life at 2 µM by item
Test: Stability in heparin treated rat plasma at 2 uM at 37 degC by electrospray ionization mass spectrometry
Assay type: ADME, cell-free
MEASUREMENT KIND: half-life at 2 µM (min)

CCc1cc(OC)cc2nc(-c3cccnc3N3CCN(CCN4CCOCC4)CC3)oc(=O)c12; 19
CCc1cc(OC)cc2nc(-c3cccnc3N3CCC(C(=O)O)CC3)oc(=O)c12; 81
CCc1cc(OC)cc2nc(-c3cccnc3N3CCN(CCC#N)CC3)oc(=O)c12; 11
CCc1cc(OC)cc2nc(-c3cccnc3N3CCN(C)CC3)oc(=O)c12; 84

====

Measured log10 half-life by item
Experiment: Chemical stability in 200 mM sodium borate buffer at pH 9.2
Format: physicochemical
MEASUREMENT KIND: log10 half-life (log10 of the value in h)

CCc1cc(OC)cc2nc(-c3cccnc3N3CCN(C4CCN(C)CC4)CC3)oc(=O)c12; 1.37
CCc1cc(OC)cc2nc(-c3cccnc3N3CCC(C(=O)O)CC3)oc(=O)c12; 1.22
CCc1cccc2nc(-c3cccnc3N3CCN(C4CCN(C)CC4)CC3)oc(=O)c12; -0.03
CCc1cccc2nc(-c3cccnc3N3CCN(C)CC3)oc(=O)c12; 0.03
CCc1cc(N(C)C)cc2nc(-c3cccnc3N3CCN(C4CCN(C)CC4)CC3)oc(=O)c12; 2.06
CCc1cccc2nc(-c3cccnc3N3CCC(C(=O)O)CC3)oc(=O)c12; 0.17
CCc1cc(N(C)C)cc2nc(-c3cccnc3N3CCN(C)CC3)oc(=O)c12; 2.09
CCc1cc(OC)cc2nc(-c3cccnc3N3CCN(C)CC3)oc(=O)c12; 0.60
